- test_name: Whole blood PK and whole blood/plasma partitioning after a single 1-h IV infusion of [^14C]-pevonedistat 25 mg/m^2 (part A)
- Format: in vivo, human
- condition_parameters: human, whole blood and plasma, iv, 25 mg/m^2, single 1-h IV infusion 25 mg/m^2; mean (SD); N = 7; read-out: Whole blood/plasma Cmax ratio
reported_endpoint: blood plasma ratio
// return just the number, without any unit appended

Request: I have this compound here, NS(=O)(=O)OC[C@@H]1C[C@@H](n2ccc3c(N[C@H]4CCc5ccccc54)ncnc32)C[C@@H]1O [Pevonedistat] , and I need its recorded blood plasma ratio.
Response: 31.9

* * *

- test_name: Whole blood PK and whole blood/plasma partitioning after a single 1-h IV infusion of [^14C]-pevonedistat 25 mg/m^2 (part A)
- Format: in vivo, human
- condition_parameters: human; whole blood; single 1-hr IV infusion 25 mg/m^2; geometric mean (CV); N = 7
reported_endpoint: Cmax (ng/mL)
Give the value in ng/mL but do not write ng/mL after it.

Request: Could you share which Cmax value was measured for NS(=O)(=O)OC[C@@H]1C[C@@H](n2ccc3c(N[C@H]4CCc5ccccc54)ncnc32)C[C@@H]1O [Pevonedistat] ?
Response: 6720

* * *

- test_name: Plasma PK after a single 1-h IV infusion of [^14C]-pevonedistat 25 mg/m^2 (part A)
- Assay type: in vivo, human
- condition_parameters: human; plasma; single 1-h IV infusion 25 mg/m^2; geometric mean (CV); N = 7
reported_endpoint: clearance (mL/min)
A number alone suffices; assume mL/min.

Request: Quick one: clearance for NS(=O)(=O)OC[C@@H]1C[C@@H](n2ccc3c(N[C@H]4CCc5ccccc54)ncnc32)C[C@@H]1O [Pevonedistat] ?
Response: 537

* * *

- test_name: Whole blood PK and whole blood/plasma partitioning after a single 1-h IV infusion of [^14C]-pevonedistat 25 mg/m^2 (part A)
- Type: in vivo, human
- condition_parameters: human; whole blood; single 1-hr IV infusion 25 mg/m^2; mean (SD); N = 7
reported_endpoint: half-life (h)
Please state the figure in h; there is no need to write the unit.

Request: Which measured half-life value corresponds to NS(=O)(=O)OC[C@@H]1C[C@@H](n2ccc3c(N[C@H]4CCc5ccccc54)ncnc32)C[C@@H]1O [Pevonedistat] ?
Response: 13.9
